Recorded IC50 values for a group of compounds are listed next.
tested on: NCI-H1975; experiment: cells; assay type: functional, cell-based; conditions: Homo sapiens
Description: SANGER: Inhibition of human NCI-H1975 cell growth in a cell viability assay.
measureName: IC50

> print(dat)
                                   compound  observedmeasurement
1  CN(NC(=O)CC(=O)NN(C)C(=S)c1ccccc1)C(=S)c1ccccc1 [ELESCLOMOL]             > 0.2 µM
2  CC1=C(/C=C/C(C)=C/C=C/C(C)=C/C(=O)O)C(C)(C)CCC1 [TRETINOIN]              > 10 µM

---

tested on: SNU-16; assay: cells; assay type: functional, cell-based, Homo sapiens; settings: Homo sapiens, SNU-16;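 note: growth inhibition of human SNU-16 cells, determined with a cell viability readout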
Description: SANGER: Inhibition of human NCI-SNU-16 cell growth in a cell viability assay.
pIC50: −log10 of the molar value.
Recorded pIC50 values for a group of compounds are listed next.
measureName: pIC50

> print(dat)
                                inputsmiles  testedtarget  measurename  ltgteq  observedmeasurement
1         CCCCCCCCCCCC1=C(O)C(=O)C=C(O)C1=O        SNU-16        pIC50       <                 4.49
2  C/C(=C\c1csc(C)n1)[C@@H]1C[C@@H]2O[C@]2(C)CCC[C@H](C)[C@H](O)[C@@H](C)C(=O)C(C)(C)[C@@H](O)CC(=O)O1        SNU-16        pIC50       =                 7.51
